- assayName: Inhibitory activity was measured for Glyceraldehyde-3-phosphate dehydrogenase in Trypanosoma brucei
Below, each entry is listed alongside its reported IC50.
Express your answer in µM, writing the number without its unit.

COc1cccc(C(=O)N[C@@H]2[C@H](O)[C@@H](CO)O[C@H]2n2cnc3c(NCc4ccccc4C)ncnc32)c1 30

## Task # IC50 lookup, item COc1cccc(C(=O)N[C@@H]2[C@H](O)[C@@H](CO)O[C@H]2n2cnc3c(NCc4ccccc4)ncnc32)c1
## Result 220

---

# IC50 per entry
- assayName: Inhibitory activity measured for Glyceraldehyde-3-phosphate dehydrogenase (GAPDH) in Leishmania. mexicana
// units = µM; emit number, no label

Nc1ncnc2c1ncn2[C@@H]1O[C@H](CO)[C@@H](O)[C@H]1NC(=O)c1cc(O)c(O)c(O)c1 250
Cc1cccc(CNc2ncnc3c2ncn3[C@@H]2O[C@H](CO)[C@@H](O)[C@H]2O)c1 700

## Task Given COc1cccc(C(=O)N[C@@H]2[C@H](O)[C@@H](CO)O[C@H]2n2cnc3c(NCc4ccccc4OC)ncnc32)c1 , state its recorded IC50.
## Result 25

## Task So what's the measured IC50 for this one? COc1cccc(C(=O)N[C@@H]2[C@H](O)[C@@H](CO)O[C@H]2n2cnc3c(NC(=O)C(C)C)ncnc32)c1
## Result 1200

## Task Quick one: IC50 of COc1cccc(C(=O)N[C@@H]2[C@H](O)[C@@H](CO)O[C@H]2n2cnc3c(NCc4ccccc4C)ncnc32)c1 ?
## Result 4

## Task # query: IC50 of entry COc1cccc(C(=O)N[C@@H]2[C@H](O)[C@@H](CO)O[C@H]2n2cnc3c(N)ncnc32)c1O
## Result 600
